Documented Kd across a set of compounds
# target-under-test: Integrin alpha-IIb/beta-3 (Homo sapiens, UniProt P05106+P08514)
# assay-procedure: Competition with [1251]L-692,884 for binding to purified alpha IIb/beta3 integrin, activated by coating onto yttrium silicate scintillation proximity assay fluomicrospheres.
# Type: protein-complex assay
# Sequence (P05106 27-788 limits assumed): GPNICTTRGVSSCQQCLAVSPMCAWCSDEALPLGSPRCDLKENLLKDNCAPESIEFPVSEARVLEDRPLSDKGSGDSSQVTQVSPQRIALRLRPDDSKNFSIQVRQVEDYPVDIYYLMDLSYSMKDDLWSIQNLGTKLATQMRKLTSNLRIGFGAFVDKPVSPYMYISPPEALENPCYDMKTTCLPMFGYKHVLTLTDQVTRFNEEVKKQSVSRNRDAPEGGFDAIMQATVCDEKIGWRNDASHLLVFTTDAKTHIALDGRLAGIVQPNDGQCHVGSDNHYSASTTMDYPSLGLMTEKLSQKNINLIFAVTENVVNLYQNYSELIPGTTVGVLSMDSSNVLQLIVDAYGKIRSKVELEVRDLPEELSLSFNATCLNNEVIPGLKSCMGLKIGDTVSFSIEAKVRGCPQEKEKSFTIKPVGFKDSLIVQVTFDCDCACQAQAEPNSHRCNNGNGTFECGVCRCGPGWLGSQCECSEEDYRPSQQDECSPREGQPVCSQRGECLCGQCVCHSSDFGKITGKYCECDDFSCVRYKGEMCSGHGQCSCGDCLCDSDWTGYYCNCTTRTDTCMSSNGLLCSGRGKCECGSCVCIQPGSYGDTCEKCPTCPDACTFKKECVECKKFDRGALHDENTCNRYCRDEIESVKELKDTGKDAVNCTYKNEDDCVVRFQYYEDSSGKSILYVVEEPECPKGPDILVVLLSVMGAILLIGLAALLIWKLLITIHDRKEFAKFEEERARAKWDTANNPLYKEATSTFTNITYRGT
# Sequence (P08514 32-887 limits assumed): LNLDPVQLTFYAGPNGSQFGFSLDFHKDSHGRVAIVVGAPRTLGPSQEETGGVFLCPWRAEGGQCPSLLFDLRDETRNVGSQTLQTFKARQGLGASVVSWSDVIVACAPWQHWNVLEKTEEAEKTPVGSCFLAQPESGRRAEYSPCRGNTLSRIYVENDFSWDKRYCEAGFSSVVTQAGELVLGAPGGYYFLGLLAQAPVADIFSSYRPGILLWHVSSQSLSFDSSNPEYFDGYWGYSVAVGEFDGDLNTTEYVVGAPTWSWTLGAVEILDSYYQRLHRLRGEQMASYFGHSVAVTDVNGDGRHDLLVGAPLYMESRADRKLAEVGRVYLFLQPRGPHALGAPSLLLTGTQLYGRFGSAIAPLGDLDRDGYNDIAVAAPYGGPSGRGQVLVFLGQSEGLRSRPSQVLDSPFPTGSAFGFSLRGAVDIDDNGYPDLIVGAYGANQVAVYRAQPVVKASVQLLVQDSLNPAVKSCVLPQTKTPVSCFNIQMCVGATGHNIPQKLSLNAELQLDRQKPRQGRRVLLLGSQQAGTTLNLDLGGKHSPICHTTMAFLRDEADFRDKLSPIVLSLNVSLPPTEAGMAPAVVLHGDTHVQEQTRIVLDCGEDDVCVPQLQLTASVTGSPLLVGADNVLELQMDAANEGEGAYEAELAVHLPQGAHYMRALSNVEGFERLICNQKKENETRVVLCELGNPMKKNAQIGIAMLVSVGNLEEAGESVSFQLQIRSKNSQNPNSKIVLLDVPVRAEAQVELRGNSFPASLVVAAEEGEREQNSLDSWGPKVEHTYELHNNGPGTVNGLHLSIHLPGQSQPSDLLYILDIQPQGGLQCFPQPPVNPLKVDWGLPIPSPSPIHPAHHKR
# Sequence (P08514 891-1039 limits assumed): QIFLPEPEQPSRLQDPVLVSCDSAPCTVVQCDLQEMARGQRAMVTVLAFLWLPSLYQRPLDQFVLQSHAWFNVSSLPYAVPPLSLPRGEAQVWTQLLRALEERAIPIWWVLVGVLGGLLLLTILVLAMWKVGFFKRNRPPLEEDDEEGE

>  <compound>
O=C(O)CCNC(=O)c1cc2n(n1)CCCN(CCC1CCNCC1)C2=O

>  <target-under-test>
Integrin alpha-IIb/beta-3 (Homo sapiens, UniProt P05106+P08514)

>  <Kd, nM>
46

$$$$
>  <compound>
CC(CC(=O)O)NC(=O)c1ccc2c(c1)C(=O)N(CCC1CCNCC1)C2 (stereo not given)

>  <target-under-test>
Integrin alpha-IIb/beta-3 (Homo sapiens, UniProt P05106+P08514)

>  <Kd, nM>
64

$$$$
>  <compound>
C#CC(CCCN1CCC[C@@H](CCC2CCNCC2)C1=O)CC(=O)O (stereo not given in full)

>  <target-under-test>
Integrin alpha-IIb/beta-3 (Homo sapiens, UniProt P05106+P08514)

>  <Kd, nM>
9

$$$$
>  <compound>
C#CC(CC(=O)O)NC(=O)CN(C(=O)c1cccc(C2CCNCC2)c1)C1CC1 (stereo not given)

>  <target-under-test>
Integrin alpha-IIb/beta-3 (Homo sapiens, UniProt P05106+P08514)

>  <Kd, nM>
0.85

$$$$
>  <compound>
O=C(CN1CCc2ccc(N3CCNCC3)cc2C1=O)NC[C@H](NS(=O)(=O)c1ccccc1)C(=O)O

>  <target-under-test>
Integrin alpha-IIb/beta-3 (Homo sapiens, UniProt P05106+P08514)

>  <Kd, nM>
6.7

$$$$
>  <compound>
O=C(O)C[C@H](NC(=O)CN1CCC[C@@H](CCC2CCNCC2)C1=O)c1cccnc1

>  <target-under-test>
Integrin alpha-IIb/beta-3 (Homo sapiens, UniProt P05106+P08514)

>  <Kd, nM>
0.38

$$$$
>  <compound>
C[C@@H](/C=C/CN1CCC[C@@H](CCC2CCNCC2)C1=O)CC(=O)O

>  <target-under-test>
Integrin alpha-IIb/beta-3 (Homo sapiens, UniProt P05106+P08514)

>  <Kd, nM>
12

$$$$
>  <compound>
C#C[C@H](CC(=O)O)NC(=O)CN1CCc2ccc(N3CCNCC3)cc2C1=O

>  <target-under-test>
Integrin alpha-IIb/beta-3 (Homo sapiens, UniProt P05106+P08514)

>  <Kd, nM>
0.56

$$$$
>  <compound>
O=C(NC[C@H](NS(=O)(=O)c1ccccc1)C(=O)O)c1ccc(OCCC2CCNCC2)cc1

>  <target-under-test>
Integrin alpha-IIb/beta-3 (Homo sapiens, UniProt P05106+P08514)

>  <Kd, nM>
0.16

$$$$
>  <compound>
C#C[C@H](CC(=O)O)NC(=O)C[C@H]1CCCN(CCc2ccnc(N)c2)C1=O

>  <target-under-test>
Integrin alpha-IIb/beta-3 (Homo sapiens, UniProt P05106+P08514)

>  <Kd, nM>
0.26

$$$$
>  <compound>
O=C(O)C[C@@H](CO)NC(=O)c1ccc2c(c1)C(=O)N(CCC1CCNCC1)C2

>  <target-under-test>
Integrin alpha-IIb/beta-3 (Homo sapiens, UniProt P05106+P08514)

>  <Kd, nM>
21

$$$$
>  <compound>
C#C[C@H](CC(=O)O)NC(=O)C[C@H]1CCCN(CCC2CCNCC2)C1=O

>  <target-under-test>
Integrin alpha-IIb/beta-3 (Homo sapiens, UniProt P05106+P08514)

>  <Kd, nM>
0.34

$$$$
>  <compound>
O=C(O)C[C@@H](CO)NC(=O)CN1CCc2ccc(N3CCNCC3)cc2C1=O

>  <target-under-test>
Integrin alpha-IIb/beta-3 (Homo sapiens, UniProt P05106+P08514)

>  <Kd, nM>
15

$$$$
>  <compound>
O=C(O)CCNC(=O)c1ccc2c(c1)C(=O)N(CCC1CCNCC1)C2

>  <target-under-test>
Integrin alpha-IIb/beta-3 (Homo sapiens, UniProt P05106+P08514)

>  <Kd, nM>
13

$$$$
>  <compound>
O=C(O)C[C@H](NC(=O)CN1CCc2ccc(N3CCNCC3)cc2C1=O)c1cccnc1

>  <target-under-test>
Integrin alpha-IIb/beta-3 (Homo sapiens, UniProt P05106+P08514)

>  <Kd, nM>
0.25

$$$$
>  <compound>
C#C[C@H](CC(=O)O)NC(=O)CN1CCC[C@@H](CCc2ccnc(N)c2)C1=O

>  <target-under-test>
Integrin alpha-IIb/beta-3 (Homo sapiens, UniProt P05106+P08514)

>  <Kd, nM>
0.78

$$$$
>  <compound>
O=C(NC[C@H](NS(=O)(=O)c1ccccc1)C(=O)O)c1ccc2c(c1)C(=O)N(CCC1CCNCC1)C2

>  <target-under-test>
Integrin alpha-IIb/beta-3 (Homo sapiens, UniProt P05106+P08514)

>  <Kd, nM>
0.25

$$$$
>  <compound>
O=C(O)CCNC(=O)CN1CCc2ccc(N3CCNCC3)cc2C1=O

>  <target-under-test>
Integrin alpha-IIb/beta-3 (Homo sapiens, UniProt P05106+P08514)

>  <Kd, nM>
9.7

$$$$
>  <compound>
O=C(CN1CCC[C@@H](CCC2CCNCC2)C1=O)NC[C@H](NS(=O)(=O)c1ccccc1)C(=O)O

>  <target-under-test>
Integrin alpha-IIb/beta-3 (Homo sapiens, UniProt P05106+P08514)

>  <Kd, nM>
0.78

$$$$
>  <compound>
O=C(NC[C@H](NS(=O)(=O)c1ccccc1)C(=O)O)c1cc2cc(CCC3CCNCC3)sc2s1

>  <target-under-test>
Integrin alpha-IIb/beta-3 (Homo sapiens, UniProt P05106+P08514)

>  <Kd, nM>
0.09

$$$$

* * *

# target-under-test: Integrin alpha-IIb/beta-3 (Homo sapiens, UniProt P05106+P08514)
# assay-procedure: Selectivity as determined by the ratio of KDs, resting receptor over activated receptor
# Type: protein-complex assay

>  <compound>
O=C(O)C[C@H](NC(=O)CN1CCc2ccc(N3CCNCC3)cc2C1=O)c1cccnc1

>  <Selectivity>
14

$$$$
>  <compound>
Cc1ccc(S(=O)(=O)N[C@@H](CNC(=O)c2cc3n(n2)CCCN(CCC2CCNCC2)C3=O)C(=O)O)cc1

>  <Selectivity>
18

$$$$
>  <compound>
O=C(CN1CCC[C@@H](CCC2CCNCC2)C1=O)NC[C@H](NS(=O)(=O)c1ccccc1)C(=O)O

>  <Selectivity>
19

$$$$
>  <compound>
C#CC(CC(=O)O)NC(=O)CN(C(=O)c1cccc(C2CCNCC2)c1)C1CC1 (centres undefined)

>  <Selectivity>
141

$$$$
>  <compound>
O=C(O)C[C@@H](CO)NC(=O)CN1CCc2ccc(N3CCNCC3)cc2C1=O

>  <Selectivity>
> 67

$$$$
>  <compound>
C#C[C@H](CC(=O)O)NC(=O)CN1CCC[C@@H](CCC2CCNCC2)C1=O

>  <Selectivity>
244

$$$$
>  <compound>
O=C(NC[C@H](NS(=O)(=O)c1ccccc1)C(=O)O)c1ccc(OCCC2CCNCC2)cc1

>  <Selectivity>
15

$$$$
>  <compound>
O=C(O)C[C@@H](CO)NC(=O)c1ccc2c(c1)C(=O)N(CCC1CCNCC1)C2

>  <Selectivity>
2

$$$$
>  <compound>
C#C[C@H](CC(=O)O)NC(=O)C[C@H]1CCCN(CCC2CCNCC2)C1=O

>  <Selectivity>
18

$$$$
>  <compound>
C#C[C@H](CC(=O)O)NC(=O)C[C@H]1CCCN(CCc2ccnc(N)c2)C1=O

>  <Selectivity>
230

$$$$
>  <compound>
C[C@@H](/C=C/CN1CCC[C@@H](CCC2CCNCC2)C1=O)CC(=O)O

>  <Selectivity>
192

$$$$
>  <compound>
O=C(O)CCNC(=O)c1ccc2c(c1)C(=O)N(CCC1CCNCC1)C2

>  <Selectivity>
9

$$$$
>  <compound>
C#CC(CCCN1CCC[C@@H](CCC2CCNCC2)C1=O)CC(=O)O (some centres undefined)

>  <Selectivity>
344

$$$$
>  <compound>
C#C[C@H](CC(=O)O)NC(=O)c1ccc2c(c1)C(=O)N(CCc1ccnc(N)c1)C2

>  <Selectivity>
38

$$$$
>  <compound>
C#C[C@H](CC(=O)O)NC(=O)CN1CCc2ccc(N3CCNCC3)cc2C1=O

>  <Selectivity>
89

$$$$
>  <compound>
O=C(O)C[C@H](NC(=O)C[C@H]1CCCN(CCC2CCNCC2)C1=O)c1cccnc1

>  <Selectivity>
37

$$$$
>  <compound>
C[C@H](CC(=O)O)NC(=O)CN1CCC[C@@H](CCC2CCNCC2)C1=O

>  <Selectivity>
140

$$$$
>  <compound>
C#C[C@H](CC(=O)O)NC(=O)CN1CCC[C@@H](CCc2ccnc(N)c2)C1=O

>  <Selectivity>
435

$$$$
>  <compound>
O=C(CN1CCc2ccc(N3CCNCC3)cc2C1=O)NC[C@H](NS(=O)(=O)c1ccccc1)C(=O)O

>  <Selectivity>
1.9

$$$$

Reference for the values: ChEMBL document CHEMBL1133044
